Quick reference for number of osteoclasts (fig. 1f) among some molecules
- Tested on: BMM cells
- assay.info: Osteoclastogenic assay of WT, single-point mutated sRANKL and L-RANKL
- Format: cell-based, mouse
- assay.context: BMMs, M-CSF 10 ng/mL, sRANKL protein 200 ng/mL
Give only the figure.

The examples below pair each entry with its known result.
[[record]]
molecule = "D301A: single-point mutated rat sRANKL (protein, left off: His6, N-terminal, cleaved | SUMO, N-terminal, cleaved, single-point mutated rat sRANKL) KPEAQPFAHLTINAADIPSGSHKVSLSSWYHDRGWAKISNMTLSNGKLRVNQDGFYYLYANICFRHHETSGSVPADYLQLMVYVVKTSIKIPSSHNLMKGGSTKNWSGNSEFHFYSINVGGFFKLRAGEEISVQVSNPSLLAPDQDATYFGAFKVQDID"
measurement_label = "number of osteoclasts (fig. 1f)"
observed_value = 0

[[record]]
molecule = "E227A: single-point mutated rat sRANKL (protein, left off: His6, N-terminal, cleaved | SUMO, N-terminal, cleaved, single-point mutated rat sRANKL) KPEAQPFAHLTINAADIPSGSHKVSLSSWYHDRGWAKISNMTLSNGKLRVNQDGFYYLYANICFRHHATSGSVPADYLQLMVYVVKTSIKIPSSHNLMKGGSTKNWSGNSEFHFYSINVGGFFKLRAGEEISVQVSNPSLLDPDQDATYFGAFKVQDID"
measurement_label = "number of osteoclasts (fig. 1f)"
observed_value = 0

[[record]]
molecule = "R224A: single-point mutated rat sRANKL (protein, left off: His6, N-terminal, cleaved | SUMO, N-terminal, cleaved, single-point mutated rat sRANKL) KPEAQPFAHLTINAADIPSGSHKVSLSSWYHDRGWAKISNMTLSNGKLRVNQDGFYYLYANICFAHHETSGSVPADYLQLMVYVVKTSIKIPSSHNLMKGGSTKNWSGNSEFHFYSINVGGFFKLRAGEEISVQVSNPSLLDPDQDATYFGAFKVQDID"
measurement_label = "number of osteoclasts (fig. 1f)"
observed_value = 0

[[record]]
molecule = "K182A: single-point mutated rat sRANKL (protein, left off: His6, N-terminal, cleaved | SUMO, N-terminal, cleaved, single-point mutated rat sRANKL) KPEAQPFAHLTINAADIPSGSHAVSLSSWYHDRGWAKISNMTLSNGKLRVNQDGFYYLYANICFRHHETSGSVPADYLQLMVYVVKTSIKIPSSHNLMKGGSTKNWSGNSEFHFYSINVGGFFKLRAGEEISVQVSNPSLLDPDQDATYFGAFKVQDID"
measurement_label = "number of osteoclasts (fig. 1f)"
observed_value = 0

[[record]]
molecule = "H226A: single-point mutated rat sRANKL (protein, UniProt Q9ESE2 69-318, looked up, variant H226A, extracellular domain, single-point mutated rat sRANKL) extracellular domain: LYFRAQMDPNRISEDSTRCFYRILRLRENTGLQDSTLESEDTEALPDSCRRMKQAFQGAVQRELQHIVGPQRFSGVPAMMEGSWLDVARRGKPEAQPFAHLTINAADIPSGSHKVSLSSWYHDRGWAKISNMTLSNGKLRVNQDGFYYLYANICFRHAETSGSVPADYLQLMVYVVKTSIKIPSSHNLMKGGSTKNWSGNSEFHFYSINVGGFFKLRAGEEISVQVSNPSLLDPDQDATYFGAFKVQDID"
measurement_label = "number of osteoclasts (fig. 1f)"
observed_value = 0


Which number of osteoclasts (fig. 1f) reading was recorded for the molecule D303A: single-point mutated rat sRANKL (protein, left off: His6, N-terminal, cleaved | SUMO, N-terminal, cleaved, single-point mutated rat sRANKL) KPEAQPFAHLTINAADIPSGSHKVSLSSWYHDRGWAKISNMTLSNGKLRVNQDGFYYLYANICFRHHETSGSVPADYLQLMVYVVKTSIKIPSSHNLMKGGSTKNWSGNSEFHFYSINVGGFFKLRAGEEISVQVSNPSLLDPAQDATYFGAFKVQDID ? 0

Would you mind doing E270A: single-point mutated rat sRANKL (protein, left off: His6, N-terminal, cleaved | SUMO, N-terminal, cleaved, single-point mutated rat sRANKL) KPEAQPFAHLTINAADIPSGSHKVSLSSWYHDRGWAKISNMTLSNGKLRVNQDGFYYLYANICFRHHETSGSVPADYLQLMVYVVKTSIKIPSSHNLMKGGSTKNWSGNSAFHFYSINVGGFFKLRAGEEISVQVSNPSLLDPDQDATYFGAFKVQDID as well? 0

The measured values listed here are drawn from paper PMC9468151.
